Across several studies, compounds have been characterized by their IC50 on BTK (Homo sapiens); a selection follows.
Sequence (Q06187 whole entry): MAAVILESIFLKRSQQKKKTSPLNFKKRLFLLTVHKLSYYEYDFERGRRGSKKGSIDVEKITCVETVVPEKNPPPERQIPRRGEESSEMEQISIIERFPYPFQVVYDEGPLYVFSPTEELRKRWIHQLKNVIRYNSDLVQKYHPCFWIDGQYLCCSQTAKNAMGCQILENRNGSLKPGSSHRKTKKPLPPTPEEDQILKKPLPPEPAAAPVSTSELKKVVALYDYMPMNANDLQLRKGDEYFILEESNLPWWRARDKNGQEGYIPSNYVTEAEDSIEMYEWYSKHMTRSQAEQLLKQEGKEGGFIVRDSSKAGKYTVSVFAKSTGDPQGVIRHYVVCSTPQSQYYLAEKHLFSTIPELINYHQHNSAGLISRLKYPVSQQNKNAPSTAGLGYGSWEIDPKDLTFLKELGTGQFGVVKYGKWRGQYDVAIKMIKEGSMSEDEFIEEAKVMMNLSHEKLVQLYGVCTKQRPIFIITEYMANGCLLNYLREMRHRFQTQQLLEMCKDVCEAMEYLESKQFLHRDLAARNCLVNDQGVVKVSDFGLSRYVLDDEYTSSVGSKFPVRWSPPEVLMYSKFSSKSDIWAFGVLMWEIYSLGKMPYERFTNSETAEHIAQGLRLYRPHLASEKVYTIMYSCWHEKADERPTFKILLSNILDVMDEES

COMPOUND: Cc1ncc(COc2cc(F)cc(Oc3ccc(-c4nn(C[C@H]5CCCN5C(=O)C5=CCC5)c5ncnc(N)c45)cc3)c2)cn1
IC50: 53 nM

COMPOUND: C=CC(=O)N1CCC[C@@H](n2nc(-c3ccc(C(=O)Nc4ccccn4)cc3OC)c3c(N)ncc(Cl)c32)C1
IC50: 3.7 nM

COMPOUND: Cc1cc(-c2nc(-c3cnn(C)c3)cn3nccc23)ccc1CNC(=O)c1nnn(C(C)(C)C)n1
IC50: < 1 nM

COMPOUND: CC#CC(=O)N1C[C@H]2[C@@H]([C@H]1c1nc(-c3ccc(C(=O)Nc4cc(C)ccn4)cc3)c3c(N)nccn13)C2(C)C
IC50: 31 nM

COMPOUND: Cn1cc(-c2cn3nccc3c(-c3ccc(CNC(=O)c4ccn(C(C)(C)C)n4)c(F)c3)n2)cn1
IC50: 1 to 10 nM

COMPOUND: Nc1cccc(-c2cc3nccc(Oc4ccc(Oc5ccccc5)cc4)c3o2)c1
IC50: 300 to 3000 nM

COMPOUND: C=CC(=O)N1CCC(Nc2cc(Nc3ccc(F)c(Cl)c3)ncn2)C1 (centres unmarked)
IC50: 100 to 1000 nM

COMPOUND: CN(c1ncnc2[nH]ncc12)[C@H]1CCCN(C(=O)CNc2cc(Cl)cc(Cl)c2)C1
IC50: 100 to 999 nM

COMPOUND: Cc1cc(-c2cc(Nc3cc4n(n3)CCN(C)C4)ncn2)ccc1CNC(=O)N1CC(OC(C)C)C1
IC50: < 10 nM

COMPOUND: [2H]C([2H])([2H])C([2H])([2H])N(C(=O)C=C)c1cccc(Nc2ncc3cc(-c4c(C)cc[nH]c4=O)ccc3n2)c1
IC50: < 100 nM

COMPOUND: Cc1cnc(Nc2cc(CN3CCOCC3)cc(N[C@H]3CCCN(C(=O)CCCl)C3)n2)s1
IC50: 30.8 nM
